FYI, the data here is from patent US20230374015A1.

Biological target: UniProt:P21802
Sequence (P21802 22-821): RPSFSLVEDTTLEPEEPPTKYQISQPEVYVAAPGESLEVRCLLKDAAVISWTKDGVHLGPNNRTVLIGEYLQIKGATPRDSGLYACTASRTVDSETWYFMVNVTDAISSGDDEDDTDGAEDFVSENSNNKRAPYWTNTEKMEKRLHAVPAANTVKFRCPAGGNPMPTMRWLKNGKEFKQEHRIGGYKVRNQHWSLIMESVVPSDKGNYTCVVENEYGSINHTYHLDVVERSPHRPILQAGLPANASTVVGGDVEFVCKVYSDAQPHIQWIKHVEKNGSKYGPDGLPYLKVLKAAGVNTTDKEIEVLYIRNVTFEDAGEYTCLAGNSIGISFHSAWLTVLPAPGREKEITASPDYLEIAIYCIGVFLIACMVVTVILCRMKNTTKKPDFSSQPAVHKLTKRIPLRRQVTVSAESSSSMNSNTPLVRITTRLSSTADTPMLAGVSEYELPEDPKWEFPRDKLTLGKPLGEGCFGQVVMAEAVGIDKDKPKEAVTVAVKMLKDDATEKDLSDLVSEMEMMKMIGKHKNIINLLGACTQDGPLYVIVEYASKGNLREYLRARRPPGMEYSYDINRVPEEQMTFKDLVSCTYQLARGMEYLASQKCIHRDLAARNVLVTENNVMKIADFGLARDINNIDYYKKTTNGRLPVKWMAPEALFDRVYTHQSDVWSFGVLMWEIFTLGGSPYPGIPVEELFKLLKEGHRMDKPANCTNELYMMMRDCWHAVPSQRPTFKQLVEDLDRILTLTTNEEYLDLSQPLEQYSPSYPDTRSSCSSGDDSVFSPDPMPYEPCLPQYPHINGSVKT
Test: FGFR2 Kinase Protocol - Condition 2 (Reaction Biology HotSpot radiometric kinase assay, no preincubation)
Assay type: biochemical
Conditions: poly[Glu:Tyr] (4:1) 0.2 mg/ml, ATP 100 microM, 2 hr room temperature
Method: Example 2: FGFR2 Kinase Protocol—Condition 2 The Reaction Biology HotSpot assay platform (http://www.reactionbiology.com) was used to measure kinase/inhibitor interactions as described previously (Anastassiadis et al., 2011). […] The percent remaining kinase activity relative to a vehicle-containing (DMSO) kinase reaction was calculated for each kinase/inhibitor pair. IC50 values were calculated using Dotmatics Knowledge Solutions Studies curve fitting (Dotmatics, Bishops Stortford, UK, CM23).
QUANTITY_MEASURED: IC50

# SMILES_REPRESENTATION, TESTED_SYSTEM, RECORDED_VALUE
records = [
    ("C=CC(=O)N1C[C@@H](n2cc(C#Cc3c(F)cc4c(ncn4CC)c3F)c3c(N)ncnc32)C[C@@H]1COC", "UniProt:P21802", "≤ 100 nM"),
]

Query: Recall the recorded IC50 for `C=CC(=O)N1C[C@@H](n2nc(C#Cc3cc4ncn(CC)c4cc3F)c3c(N)nccc32)C[C@@H]1C(F)F` with UniProt:P21802 and state it.
Reply: ≤ 100 nM

Query: Recall the recorded IC50 for `C=CC(=O)N1CC[C@H](n2cc(C#Cc3cc4ncn(CC)c4cc3Cl)c3c(N)ncnc32)C1` with UniProt:P21802 and state it.
Reply: ≤ 100 nM

Query: Recall the recorded IC50 for `C=CC(=O)N1C[C@@H](n2nc(C#Cc3cc4nc(C)n(C)c4cc3Cl)c3c(N)nccc32)C[C@@H]1COC` with UniProt:P21802 and state it.
Reply: ≤ 100 nM
